Collected IC50 values appear next to each entry.
system-name: p65 (RelA) (Homo sapiens)
Sequence (Q04206 whole entry): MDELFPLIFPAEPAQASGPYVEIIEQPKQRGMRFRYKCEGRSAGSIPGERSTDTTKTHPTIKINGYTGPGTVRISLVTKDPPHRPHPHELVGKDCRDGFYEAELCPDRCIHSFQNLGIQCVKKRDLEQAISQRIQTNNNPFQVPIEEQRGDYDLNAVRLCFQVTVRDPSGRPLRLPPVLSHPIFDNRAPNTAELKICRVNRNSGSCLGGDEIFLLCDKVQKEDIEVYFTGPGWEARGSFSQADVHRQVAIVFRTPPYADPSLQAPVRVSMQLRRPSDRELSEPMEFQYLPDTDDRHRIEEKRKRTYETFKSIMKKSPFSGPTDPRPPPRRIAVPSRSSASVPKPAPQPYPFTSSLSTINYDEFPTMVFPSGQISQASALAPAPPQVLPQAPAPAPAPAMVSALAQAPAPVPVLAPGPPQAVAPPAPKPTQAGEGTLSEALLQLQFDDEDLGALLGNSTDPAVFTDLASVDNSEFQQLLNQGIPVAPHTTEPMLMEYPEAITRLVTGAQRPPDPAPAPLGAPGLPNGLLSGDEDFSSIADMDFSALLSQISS
experimental-protocol: TransAM NF-κB Family DNA Binding ELISA, p65
condition-context: p65 binding IC50 (uM), binding to NF-κB sites
Counter-ions that a name gives are not always drawn.

- molecule: "COc1c(C(=O)NC2=CC(=O)C3OC3C2=O)ccc2cccnc12 (racemic) [Example 32]"
  quantity-unit: "µM"
  IC50: 30
- molecule: "O=C(NC1=CC(=O)C2OC2C1O)c1nc2ccccc2cc1O (racemic) [Example 15]"
  quantity-unit: "µM"
  IC50: 488
- molecule: "O=C(NC1=CC(=O)C2OC2C1O)c1cnc(N2CCCCC2)nc1O (racemic) [Example 11]"
  quantity-unit: "µM"
  IC50: 4.6
- molecule: "O=C(NC1=CC(=O)C2OC2C1O)c1nc2ccccc2nc1O (racemic) [Example 9]"
  quantity-unit: "µM"
  IC50: 7.2
- molecule: "COc1ncccc1C(=O)NC1=CC(=O)C2OC2C1O (racemic) [Example 21, trifluoroacetate]"
  quantity-unit: "µM"
  IC50: 0.55
- molecule: "O=C(NC1=CC(=O)C2OC2C1O)c1cnc2ccc(Cl)cc2c1O (racemic) [Example 5]"
  quantity-unit: "µM"
  IC50: 230
- molecule: "COc1cccnc1C(=O)NC1=CC(=O)C2OC2C1O (racemic) [Example 22, trifluoroacetate]"
  quantity-unit: "µM"
  IC50: 13.2
- molecule: "O=C(NC1=CC(=O)C2OC2C1O)c1cccnc1O (racemic) [Example 1]"
  quantity-unit: "µM"
  IC50: 2.2
- molecule: "Cc1ncc(C(=O)NC2=CC(=O)C3OC3C2O)c(O)n1 (racemic) [Example 24]"
  quantity-unit: "µM"
  IC50: 2.3
- molecule: "COc1cccnc1C(=O)NC1=CC(=O)C2OC2C1O (racemic) [Example 20]"
  quantity-unit: "µM"
  IC50: 5.8
- molecule: "O=C(NC1=CC(=O)C2OC2C1O)c1nc(Cl)c2ccccc2c1O (racemic) [Example 27]"
  quantity-unit: "µM"
  IC50: 30
- molecule: "O=C(NC1=CC(=O)C2OC2C1O)c1cnc2c(C(F)(F)F)cccc2c1O (racemic) [Example 6]"
  quantity-unit: "µM"
  IC50: 3.3
- molecule: "COc1nc2ccccc2cc1C(=O)NC1=CC(=O)C2OC2C1=O (racemic) [Example 35]"
  quantity-unit: "µM"
  IC50: 50
- molecule: "COc1c(C(=O)NC2=CC(=O)C3OC3C2O)ccc2cccnc12 (racemic) [Example 29]"
  quantity-unit: "µM"
  IC50: 4.5
- molecule: "O=C(NC1=CC(=O)C2OC2C1O)c1cnccc1O (racemic) [Example 4]"
  quantity-unit: "µM"
  IC50: 5
- molecule: "COc1ncccc1C(=O)NC1=CC(=O)C2OC2C1=O (racemic) [Example 30]"
  quantity-unit: "µM"
  IC50: 36
- molecule: "COc1nc2ccccc2cc1C(=O)NC1=CC(=O)C2OC2C1O (racemic) [Example 25]"
  quantity-unit: "µM"
  IC50: 1.1
- molecule: "O=C(NC1=CC(=O)C2OC2C1O)c1cc(Cl)cnc1O (racemic) [Example 7]"
  quantity-unit: "µM"
  IC50: 3.6
